- ASSAY_NAME: chemical genetic growth profiling, strain panel (AID 1159580);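 also: tested at 20 µM; growth read once vehicle control cultures reached saturation at 30 °C; 1 = growth at the plate median or of vehicle wells; lower values mean less growth of the strain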
- CONDITIONS: S. cerevisiae deletion strains, growth OD, locus YPR111W, strain DBF20
The campaign covered roughly 5,500 compounds. About 2,000 (36%) were called active. About 18% were inconclusive and are not listed. Rule as the data show it: active = normalized growth mostly below about 0.91 (no sharp cut-off); inconclusive = no clear call, values can overlap the other calls; inactive = mostly above about 0.92. The list shows a part of the results.
# output must be one of 1.0 = active, 0.0 = inactive

Hi team, can someone confirm the assay call for CCC1(c2ccccc2)OC(c2cc(Cl)cc(Cl)c2O)Nc2ccccc21 (stereo unspecified) ? 0.0

Hi team, can someone confirm the assay call for "Cc1nc(C(F)(F)F)ccc1C(=O)Sc1nnc(-c2ccc(C(F)(F)F)nc2C)o1" ? 0.0

Hi team, can someone confirm the assay call for "O=C(SCc1c(Cl)cccc1Cl)c1ccc([N+](=O)[O-])o1" ? 0.0

Hi team, can someone confirm the assay call for "Cc1nc([N+](=O)[O-])cn1CC(=O)c1ccc(Cl)cc1" ? 0.0

Hi team, can someone confirm the assay call for "O=C(NNc1c(Cl)cccc1Cl)c1ccc([N+](=O)[O-])o1" ? 0.0

Hi team, can someone confirm the assay call for CCOC(=O)C1C(c2ccc(Br)cc2)C(C(=O)OCC)C(O)(C(F)(F)F)NC1(O)C(F)(F)F (stereo unspecified) ? 0.0

Hi team, can someone confirm the assay call for CCOC(=O)C(O)(c1ccc(NC(=O)Nc2ccc(Cl)cc2)cc1)C(F)(F)F (stereo unspecified) ? 0.0

Hi team, can someone confirm the assay call for "O=C1CSC(=Nc2cc(Cl)cc(Cl)c2)N1Cc1cccnc1" ? 0.0

Hi team, can someone confirm the assay call for "N#CC(C#N)=NNc1cc(C(F)(F)F)ccc1OCC(F)(F)F" ? 0.0

Hi team, can someone confirm the assay call for "N#CC(C#N)=NNc1ccc(C(F)(F)F)cc1" ? 1.0

Hi team, can someone confirm the assay call for "O=C(Nc1ccc(OC(F)(F)F)cc1)Nc1cncc(C(F)(F)F)c1" ? 0.0

Hi team, can someone confirm the assay call for "O=C(OCc1ccc(Oc2ccc(Cl)cc2Cl)c([N+](=O)[O-])c1)c1ccc([N+](=O)[O-])o1" ? 0.0

Hi team, can someone confirm the assay call for O=C1OC(Nc2ccccc2SCc2ccccc2Cl)c2ccccc21 (stereo unspecified) ? 0.0

Hi team, can someone confirm the assay call for CC1CCc2c(sc3ncnc(Sc4ccccc4)c23)C1 (stereo unspecified) ? 0.0

Hi team, can someone confirm the assay call for "Cc1c(Cl)cccc1N=C1SCC(=O)N1Cc1ccco1" ? 0.0

Hi team, can someone confirm the assay call for "CC(/C=C/c1ccccc1)=N/OC(=O)c1ccccc1Cl" ? 0.0

---

- ASSAY_NAME: chemical genetic growth profiling, strain panel (AID 1159580);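 also: tested at 20 µM; growth read once vehicle control cultures reached saturation at 30 °C; 1 = growth at the plate median or of vehicle wells; lower values mean less growth of the strain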
- CONDITIONS: S. cerevisiae deletion strains, growth OD, locus YEL061C, strain CIN8, stronger effect = lower value
The campaign covered roughly 5,500 compounds. About 2,000 (36%) were called active. Roughly 18% stayed inconclusive and do not appear here. The list shows a part of the results.
PROPERTY_LABEL: normalized growth
Output spec: single numeric token, no unit.

// lookup normalized growth for "O=c1ccc2cc(O[C@@H]3O[C@H](CO)[C@@H](O)[C@H](O)[C@H]3O)c(O)cc2o1" 1.01

// lookup normalized growth for "c1coc(CNc2ncnc3nc[nH]c23)c1" 0.995

// lookup normalized growth for "COc1cc2ccc(=O)oc2c(O)c1O" 0.995

// lookup normalized growth for O=C1OC(=O)C2C3CCC(O3)C12 (configuration not stated) 1.02

// lookup normalized growth for "O=c1c(-c2ccc3c(c2)OCO3)coc2cc(O)ccc12" 0.998

// lookup normalized growth for "COc1c2c(cc3occ(-c4ccc5c(c4)OCO5)c(=O)c13)OC(C)(C)C=C2" 0.992

// lookup normalized growth for "O=c1n(CCCN2CCN(c3cccc(Cl)c3)CC2)nc2ccccn12" 0.986

// lookup normalized growth for "COc1ccc2ccc(=O)oc2c1CC=C(C)C" 0.774

// lookup normalized growth for "O=c1[nH]cnc2nc[nH]c12" 1

// lookup normalized growth for "N#Cc1ccc2c(c1)N(CCCN1CCC(O)CC1)c1ccccc1S2" 1

// lookup normalized growth for "COc1cc2ccc(=O)oc2cc1O" 0.987

// lookup normalized growth for "CC1(C)C=Cc2c(cc3occ(-c4ccc5c(c4)OCO5)c(=O)c3c2O)O1" 0.981
